system: HCC 2998; test: NCI tumour cell line growth inhibition, 48 h
The source made the active and inactive calls. No stated cut-off is given here; in the data, active = GI50 up to about 1.1 µM and inactive = higher.
test.readout: GI50

1) Clc1ccc(-n2nnc(C3=NCCN3)c2-c2ccccc2)cc1
> 100 µM (inactive)
2) O=[N+]([O-])c1cccc(Cl)c1Oc1ccc(S(=O)(=O)N/C(=N\O)Nc2ccc(Cl)cc2)cc1
10.8 µM (inactive)
3) COc1cc2c(cc1OC)C13CCN4CC5CCOC6CC(=O)N2C1C6C5CC43 (stereo not drawn)
> 100 µM (inactive)

Form field GI50 for item On1c(-c2ccccc2)nc2ccccc2c1=S on HCC 2998: 2.4 µM (inactive)

So the reported GI50 for Nc1nc(O)c([N+](=O)[O-])c(NCCOCP(=O)(O)O)n1 , on HCC 2998, turned out to be > 100 µM (inactive)

Entry CSc1ccc(Nc2cc(=O)[nH]c(=O)[nH]2)cc1 , tested on HCC 2998, has a reported GI50 of > 100 µM (inactive)

Entry C[C@]12CC[C@@H]3c4cc(Br)c(O)c(Br)c4CC[C@H]3[C@@H]1CC(Br)C2=O (stereo partly drawn) ; assay system HCC 2998; GI50 recorded at 1.99 µM (inactive)

Per the reported HCC 2998 data, O=C(/N=N/c1cc(Cl)ccc1Cl)NNc1cc(Cl)ccc1Cl has GI50 of 25.9 µM (inactive)

----------
Entries and their GI50
test system: SN12C; assay: NCI tumour cell line growth inhibition, 48 h
Calls of active or inactive are those of the source. Cut-off read from the data, not from the text of the source: active = GI50 up to about 1.1 µM and inactive = higher.

1) CC1(C)CC[C@]2(C(=O)O)CC[C@]3(C)C(=CCC4=C5C[C@H](O)[C@H](O)[C@@](C)(CO)[C@@]5(C)CC[C@]43C)[C@@H]2C1
39.6 µM (inactive)
2) COc1cccc(C2SCc3nc4ccccc4n32)c1 (centres undefined)
99.1 µM (inactive)
3) O=C(/C=C/c1ccc(O)cc1)c1ccc(O)cc1 [4,4'-DIHYDROXYCHALCONE]
31.2 µM (inactive)

Form field GI50, entry O=C1[C@H]2ON(c3ccccc3)C(c3ccc(Cl)cc3Cl)[C@H]2C(=O)N1c1ccc(Cc2ccc(N3C(=O)[C@@H]4ON(c5ccccc5)C(c5ccc(Cl)cc5Cl)[C@@H]4C3=O)cc2)cc1 (some centres undefined) : > 100 µM (inactive)

Form field GI50, entry Cc1ccsc1/C=N/Nc1ccc2ccccc2n1 : > 100 µM (inactive)

GI50 recorded for this compound, COC(=O)[C@]1(C)CCC[C@@]2(C)[C@@H]3C[C@@H]4[C@H]5C[C@@]3(CC[C@@H]21)C[C@@]45C , is 19.2 µM (inactive)

Sample CC(C)(C)c1cc(C(CO)OCCOCCO)cc(C(C)(C)C)c1O (centres undefined) ; GI50 observed: > 100 µM (inactive)

Data point: CN(C)CCNC(=O)c1cccc2nc(-c3ccccc3)oc12 ; GI50 = 41.1 µM (inactive)

----------
tested on: HOP-92; experiment: NCI tumour cell line growth inhibition, 48 h
Calls of active or inactive are those of the source. Rule as the data show it: active = GI50 up to about 1.1 µM and inactive = higher.
Field 'call' accepts active, inactive

1. Cc1ccc(C(=O)N/N=C(\N=N\c2cccc(C)c2)c2ccc(N(CCC#N)CCC#N)cc2C)cc1
inactive
2. CCOc1cc(/C=C/C=C/c2ccc(N(C)C)cc2)[s+]c2ccccc12
inactive
3. O=C(CCC(=O)Nc1ccc(Cl)c(Cl)c1)CC(=O)c1ccc(Cl)cc1
inactive
4. C=C(C)COc1cc(/N=C(/S)OC(C)C)ccc1Cl
inactive
5. Cc1cc(O)nc(NN2C(Cl)C(=O)C2c2c(O)ccc3ccccc23)n1 (stereo unspecified)
inactive

Q: Kindly provide the recorded test outcome for the following compound: CNc1ccc2nc(-c3ccc(OC(=O)N(C)C)cc3)cn2c1
Ans: inactive

Q: # lookup: test call for C=CCN1C[C@@H](C)N([C@@H](c2ccccc2)c2ccc(C(=O)N(CC)CC)cc2)C[C@@H]1C
Ans: inactive

Q: Hi, do you know how S=P(N1CCCC1)(N1CC1)N1CC1 came out in this test?
Ans: inactive

Q: Assay result, entry CC(C)=CCC1=C(O)C(=O)c2ccccc2C1=O [LAPACHOL] — outcome?
Ans: inactive

Q: Which outcome did this test record for the compound Cc1ccc(S(=O)(=O)N2CCCSCCN(S(=O)(=O)c3ccc(C)cc3)CCCSCC2)cc1 ?
Ans: inactive

Q: Give the logged outcome of this assay for the following compound: CC1=CC2C(=O)N(c3ccccc3)C(=O)C2CC1n1[nH]c(=O)n(Cc2ccccc2)c1=O (stereo unspecified)
Ans: inactive

Q: Fill in: this test's call for CCOC(=O)NC(Nc1ccc(C(=O)O)cc1)(C(F)(F)F)C(F)(F)F is ___
Ans: inactive

Q: For O=C1CCCCC1S(=O)(=O)c1ccccc1 (stereo unspecified) , which call appears in the assay record?
Ans: inactive

Q: Any idea what this test logged for N#CC(NNC(=O)c1ccccc1O)c1ccc(O)cc1 (stereo unspecified) ?
Ans: inactive

Q: I would be grateful if you could indicate the recorded call for O=C1/C(=C/c2ccc(Cl)cc2)CCC/C1=C\c1ccc(O)c(CN2CCCCC2)c1 .
Ans: inactive

Q: Hi, do you know how CCOC(=O)C(=CNC(=S)c1ccncc1)C(=O)OCC came out in this test?
Ans: inactive

Q: Short answer needed: outcome of this test for Cc1ccc(/C=C2\CN(C)CC3=C2OC(N)=C(C#N)C3c2ccc(C)cc2)cc1 (stereo unspecified) ?
Ans: active

Q: Each compound tested received a call. Report the one for CN(CCc1ccccn1)/[N+]([O-])=N/O.CNCCc1ccccn1 .
Ans: inactive

Q: Recorded test call requested for Clc1ccc(-n2nnc(C3=NCCN3)c2-c2ccccc2)cc1
Ans: inactive

Q: Answer briefly: the call reported for CC(C)(C)C(=O)C(C(=O)c1ccccc1)C(=O)C(C)(C)C in this assay.
Ans: inactive

Q: Field: outcome | Entry: CC1CCCN(CP(=O)(c2ccccc2)c2ccccc2)C1 (stereo unspecified)
Ans: inactive

----------
Form field: GI50 (one value per entry).
tested on: NCI-H460; test: NCI tumour cell line growth inhibition, 48 h
Calls of active or inactive are those of the source. Rule as the data show it: active = GI50 up to about 1.1 µM and inactive = higher.

# count of solved cases: 3
1) O=NN(Cc1ccc(Cl)cc1)C(C(=O)O)c1ccccc1 (centres undefined)
> 100 µM (inactive)
2) CCOC(=O)c1ccc(Nc2nc3ccccc3n3cccc23)cc1
84.7 µM (inactive)
3) Nc1nc(NCC2(CO)CC(CCc3ccccc3)C2)cc(=O)[nH]1 (centres undefined)
> 100 µM (inactive)

Moving on to the next molecule.
Entry C[Si](C)(C)C#CCOC=C1CC1 , tested on NCI-H460, has a reported GI50 of > 100 µM (inactive)

----------
GI50 values, listed per item
system: SF-539; experiment: NCI tumour cell line growth inhibition, 48 h
Activity calls are given as the source filed them. Cut-off read from the data, not from the text of the source: active = GI50 up to about 1.1 µM and inactive = higher.

In the examples that follow, each entry is paired with its recorded GI50.
1. CCOC(=O)C1=NN(c2ccccc2)C2=CC(C)=NN(C)C(=S)N21
> 100 µM (inactive)
2. O=C1c2ccccc2-c2nc(/C=C/c3ccccc3)cc3c2c1nc1ccccc13
27.4 µM (inactive)

We now examine a further compound.
GI50 for CC(=O)c1cc2c(s1)C(=O)c1scc(C(C)=O)c1C2=O is 1.21 µM (inactive)

----------
system: ACHN; assay: NCI tumour cell line growth inhibition, 48 h
Activity calls are given as the source filed them. Cut-off read from the data, not from the text of the source: active = GI50 up to about 1.1 µM and inactive = higher.
Overview of recorded GI50 for various compounds

1. CC(C)C(Sc1nc(-c2ccccc2)c(-c2ccccc2)[nH]1)C(=O)N/N=C/c1ccc(Cl)cc1 (centres undefined)
31.9 µM (inactive)
2. CN(CC(=O)O)c1ccc(/C=C/c2ccnc3ccccc23)cc1
34.4 µM (inactive)
3. O=C1CCC2(c3ccc(Cl)cc3)Nc3ccccc3N12 (centres undefined)
60.4 µM (inactive)
4. O=c1c2cccnc2ncn1CCCN1CCCCC1
> 100 µM (inactive)
5. CCOC(=O)CN1C(=O)c2c(NC(=O)C(=O)O)cccc2S1(=O)=O
> 100 µM (inactive)
6. C=CC[C@@]1(C(=O)OC)[C@H](Sc2ccccc2)C1(C)C
> 100 µM (inactive)

Item: N#CC(NNC(=O)c1ccccc1O)c1ccc(O)cc1 (centres undefined) | GI50: 2.33 µM (inactive)

The reported GI50 of the compound O=C1OC(c2ccc(O)c(-c3ccccc3)c2)(c2ccc(O)c(-c3ccccc3)c2)c2c(Cl)c(Cl)c(Cl)c(Cl)c21 was > 100 µM (inactive)

Given item Cc1c2c(c(C)c3c4c(oc13)CCCC4)C=NCC2 , the value recorded as its GI50 is 15.8 µM (inactive)

----------
test system: UACC-257; assay: NCI tumour cell line growth inhibition, 48 h
Calls of active or inactive are those of the source. Cut-off read from the data, not from the text of the source: active = GI50 up to about 1.1 µM and inactive = higher.
Measured GI50, listed per entry.

See these solved cases before continuing.
1. COc1ccc(NC(=S)NN=C(C)c2cccc(C(C)=NNC(=S)Nc3ccc(OC)cc3)n2)cc1
> 100 µM (inactive)
2. CN1CCCC2(CCCc3ccccc32)C1 (configuration not stated)
> 100 µM (inactive)
3. COc1ccc(CNC2=Nc3ccncc3S(=O)(=O)N2c2ccccc2)cc1
37.4 µM (inactive)
4. Cc1cn2c(/C=C3/C(=O)Nc4ccccc43)c(C)nc2s1
2.78 µM (inactive)
5. Nc1nc(O)c2c(n1)NCN(c1ccc(S(N)(=O)=O)cc1)C2
> 100 µM (inactive)
6. Cc1ccc(/C=C2\CN(C)CC3=C2OC(N)=C(C#N)C3c2ccc(C)cc2)cc1 (configuration not stated)
18.8 µM (inactive)
7. CC(=O)NC(C)(C)C1CC=C(C)/C(=N\O)C1 (configuration not stated)
> 100 µM (inactive)
8. CC(=O)OCC1OC(OC2CC3C(C)(C)C(OC(C)=O)CC[C@]3(C)C3CCC45CC4(CCC5[C@@H](C)C[C@H](O)C(O)C(C)(C)O)[C@]23C)C(O)C(O)C1O (some centres not stated)
> 10 µM (inactive)

Value of GI50 reported for the compound C=CC[C@@]1(C(=O)OC)[C@H](Sc2ccccc2)C1(C)C is 34 µM (inactive)

Entry under test: O=C(CN1CCN(Cc2ccccc2)CC1)N1CCCn2c1nc1ccccc1c2=O . Its GI50 was > 100 µM (inactive)

# compound CCP(C)(=O)CC ; its GI50 = > 100 µM (inactive)

Noted for O=C1c2ccccc2C(=O)c2c(NCC(O)CO)ccc(NCC(O)CO)c21 (configuration not stated) : its GI50 reads > 100 µM (inactive)

Sample O=C(Nc1nn(C(=O)c2ccc(Cl)cc2)c(=O)s1)c1ccc(Cl)cc1 ; GI50 observed: > 100 µM (inactive)

Query COc1ccc(C2C(Cl)C(=O)N2NC(=O)Cc2ccccc2)cc1OC (configuration not stated) yields GI50 of > 100 µM (inactive)

Sample Cc1cc(N(CCC#N)CCC#N)ccc1C(/N=N/c1ccc([N+](=O)[O-])cc1)=N\NC(=O)c1ccccc1 ; GI50 observed: 61.8 µM (inactive)

Looking up OC(Cn1cncn1)(Cn1cncn1)c1ccc(Cl)cc1Cl , I found its GI50 recorded as > 100 µM (inactive)

Lab book: GI50 of Nc1nc(O)c([N+](=O)[O-])c(NCCOCP(=O)(O)O)n1 noted as > 100 µM (inactive)
